# Test system: Rattus norvegicus
# protocol_text: Effect on behavioural activity in rat assessed as cocaine-induced lever response at 2.5 mg/kg, po pretreated with cocaine for 360 mins by drug-discrimination studies
# Type: functional
parameter_measured: Activity (%)
One number for each entry, in %.

CCC(NC(C)(C)C)C(=O)c1ccc(Cl)c(Cl)c1 (stereo not drawn) : 17
CC(NC(C)(C)C)C(=O)c1ccccc1 (stereo not drawn) : 0
CCCC(NC(C)(C)C)C(=O)c1ccc(Cl)c(Cl)c1 (stereo not drawn) : 0
CC(C(=O)c1cccc(Cl)c1)N(C)C (stereo not drawn) : 0
CC(NC(C)(C)C)C(=O)c1cccc(Br)c1 (stereo not drawn) : 33
CCCC(NC(C)(C)C)C(=O)c1cccc(Cl)c1 (stereo not drawn) : 0
CC(NC(C)(C)C)C(=O)c1cc(F)cc(F)c1 (stereo not drawn) : 0

Now look at this one.
INPUT: Consider the molecule CC(NC1CC1)C(=O)c1cccc(Cl)c1 (stereo not drawn) and give its measured Activity.
OUTPUT: 0

----------
# Tested on: Rattus norvegicus
# protocol_text: Effect on behavioural activity in rat assessed as cocaine-induced lever response at 25 mg/kg, ip pretreated with cocaine for 15 mins by drug-discrimination studies
# Type: functional
# conditions_used: route intraperitoneal
parameter_measured: Activity (%)
Numbers only, in %.

Worked examples follow.
CC(C)NC(C)C(=O)c1cccc(Cl)c1 (configuration not stated) : 78.6
CCN(CC)C(C)C(=O)c1cccc(Cl)c1 (configuration not stated) : 74.8
CC(NC(C)(C)C)C(=O)c1ccccc1 (configuration not stated) : 83.4
CC(NC1CC1)C(=O)c1cccc(Cl)c1 (configuration not stated) : 66.3
CC(NC(C)(C)C)C(=O)c1cccc(Cl)c1 (configuration not stated) : 66.3
CC(NC(C)(C)C)C(=O)c1cccc(F)c1 (configuration not stated) : 100
Cc1ccc(C(=O)C(C)NC(C)(C)C)cc1 (configuration not stated) : 16.7
CC(C(=O)c1cccc(Cl)c1)N(C)C(C)(C)C (configuration not stated) : 75

Batch request: Activity per item, same order as input.
1. CCCC(NC(C)(C)C)C(=O)c1cccc(Cl)c1 (configuration not stated)
2. CCC(NC(C)(C)C)C(=O)c1cccc(Cl)c1 (configuration not stated)
3. CC(NC(C)(C)C)C(=O)c1ccc(Cl)cc1 (configuration not stated)
4. CC(C(=O)c1cccc(Cl)c1)N(C)C (configuration not stated)

OUTPUT:
83.3
100
18.1
100

----------
# Tested on: Rattus norvegicus
# protocol_text: Effect on behavioural activity in ip dosed rat assessed as cocaine-induced lever response pretreated with cocaine by drug-discrimination studies
# Type: functional
Entries whose ED50 is below 9 mg/kg take 1.0; entries at or above 9 mg/kg take 0.0.

Reference set, count: 6
CCCC(NC(C)(C)C)C(=O)c1ccc(Cl)c(Cl)c1 (stereo not given) : 1.0
CC(NC(C)(C)C)C(=O)c1cccc(F)c1 (stereo not given) : 0.0
CC(C(=O)c1cccc(Cl)c1)N(C)C (stereo not given) : 1.0
CCCCC(NC(C)(C)C)C(=O)c1cccc(Cl)c1 (stereo not given) : 0.0
CCCC(NC(C)(C)C)C(=O)c1cccc(Cl)c1 (stereo not given) : 1.0
COC(=O)[C@H]1[C@@H](OC(=O)c2ccccc2)C[C@@H]2CC[C@H]1N2C : 1.0

INPUT: Consider the compound CC(NC(C)(C)C)C(=O)c1cccc(Br)c1 (stereo not given) . Is its ED50 strictly less than 9 mg/kg?
OUTPUT: 0.0

INPUT: Consider the compound CC(NC(C)(C)C)C(=O)c1cc(F)cc(F)c1 (stereo not given) . Is its ED50 strictly less than 9 mg/kg?
OUTPUT: 1.0

INPUT: Consider the compound CCC(NC(C)(C)C)C(=O)c1cccc(Cl)c1 (stereo not given) . Is its ED50 strictly less than 9 mg/kg?
OUTPUT: 0.0

INPUT: Consider the compound CCN(CC)C(C)C(=O)c1cccc(Cl)c1 (stereo not given) . Is its ED50 strictly less than 9 mg/kg?
OUTPUT: 1.0

INPUT: Consider the compound CC(NC(C)(C)C)C(=O)c1ccccc1 (stereo not given) . Is its ED50 strictly less than 9 mg/kg?
OUTPUT: 1.0
